Tested on: coxsackievirus type B4 (CB4,JVB)
Assay: In vitro anti-picornavirus activity (MTT), CB4
Format: cell-based
Details: HeLa cells, MTT method, 37° C.
TEST_READOUT: IC50 CB4 (µg/mL)
Numbers only; they are read as µg/mL.

Solved cases (5 shown):
CCn1c(-c2ccccc2)c(C)c(=O)c2ccc(C(C)C)cc21 :: 5.5
COc1ccc2c(c1)Cc1c-2n(C)c2ccc(CC(C)C)cc2c1=O :: 1.6
CCn1c(-c2ccc(Br)s2)cc(=O)c2cc(C(C)C)ccc21 :: 1.1
CC(C)c1ccc2c(c1)c(=O)cc(-c1ccco1)n2C :: 3.6
COc1ccc(-c2c(C)c(=O)c3cc(OCC(C)C)c(C)cc3n2C)cc1C :: 2.9

// IC50 CB4 lookup, key: CC(C)c1ccc2c(c1)c(=O)cc(-c1cccs1)n2C
1.6

Consider the molecule Cc1cc2c(cc1OCC(C)C)c(=O)c(C)c(-c1ccccc1)n2C and give its measured IC50 CB4.
2.5
